Tested On: HLA-B4601 (Homo sapiens, UniProt P01889, A329T/A93R/C349S/D201E/E100V/E187L/E204Q/E69M/E70A/I90K/K202T/N87E/R155S/R180W/S121R/S35A/S48A/V306I/V36M/Y140S)
Protocol Text: Competitive peptide binding assay, CIR-B4601
Measurement Conditions: read-out: Inhibition % of Cy5-reference peptide binding, CIR-B4601, 5μM peptide
Peptide text beside a SMILES is read from it.
Parameter Measured: inhibition at 5 µM (%)
Respond with the bare value in %.

>  <Molecule>
CC[C@H](C)[C@H](NC(=O)[C@@H](NC(=O)[C@H](CC(C)C)NC(=O)[C@H](CC(N)=O)NC(=O)[C@H](Cc1c[nH]c2ccccc12)NC(=O)[C@H](CCC(N)=O)NC(=O)[C@H](CCC(=O)O)NC(=O)[C@@H](N)CC(C)C)C(C)C)C(=O)NCC(=O)O [Epitope Y215] (H-LEQWNLVIG-OH; N-terminus and C-terminus assumed)

>  <Reading Unit>
%

>  <Data Value>
47.2

$$$$

Next item in the queue.
Tell me the measured inhibition at 5 µM of CC(C)C[C@H](NC(=O)[C@@H](NC(=O)[C@@H](NC(=O)CNC(=O)[C@H](CCC(N)=O)NC(=O)[C@@H]1CCCN1C(=O)[C@H](CC(C)C)NC(=O)[C@H](CCC(N)=O)NC(=O)[C@@H](N)CC(C)C)[C@@H](C)O)[C@@H](C)O)C(=O)O [Epitope Y61] (H-LQLPQGTTL-OH; N-terminus and C-terminus assumed) , please.
20
